All values here come from patent US20210113678A1.

// reported mean relative fluorescence intensity at 50 µM peptide per item
- experimental target: T1, HLA-A*0201 molecule on human T2 cells (human)
- T1 construct: read out with anti-HLA-A2 antibody BB7.2-PE; also called HLA-A2
- assay method text: T2 cells expressing HLA-A*0201, anti-HLA-A2-PE, FACS
readout type: mean relative fluorescence intensity at 50 µM peptide

>  <binder>
WLPFGFILI (Fragment of human IL13RA2) [IL13RA2-H]

>  <result>
14.2 % of HIV peptide

$$$$
>  <binder>
LLLSAALSV [CHI3L1B]

>  <result>
85 % of HIV peptide

$$$$
>  <binder>
LLLSAALSA (Fragment of human CHI3L1) [CHI3L1H]

>  <result>
14.5 % of HIV peptide

$$$$
>  <binder>
VLEELLWFI (Fragment of human TYMS) [TYMS-H]

>  <result>
40.4 % of HIV peptide

$$$$
